Field: melting point. Provide a value for each of the compounds that follow.
Response body: numeric value in °C, unit text excluded.

// lookup melting point for "CNC(Cc1ccc(Cl)nc1)=C(N)C(=O)C(F)(F)F"
114

Return reported melting point; argument: "N#Cc1ccc(C=O)c(SCCc2ccccc2)c1"
89

Query: melting point; subject: "CC(=O)c1cccc(NC(=O)NCC(=O)N(CC(=O)N(C)c2ccccc2)c2ccccc2)c1"
170

Quick one: melting point of "Cc1ccc(-c2cc(C(=O)O)nn2Cc2ccc(C)c(Cl)c2)cc1C" ?
163

What does the record list as melting point for "COc1ccc(-c2c(C)c3cc(OC)ccc3n2CCCCCCBr)cc1" ?
60

###

Hi there, I'd appreciate the recorded melting point for every entry that follows.

I'd like to know its melting point. The compound in question is "c1ccc2c(c1)nc1n2CCCO1"
116 to 118 °C

What measured melting point goes with "O=C1OCc2c(Cl)cccc21" ?
80 to 82 °C

Name the reported melting point value associated with the compound CC(C)(C)NCC(O)COc1ccc2nc(S(N)(=O)=O)sc2c1 (configuration not stated)
195 to 196 °C

Look at this compound and give its reported melting point. "BrCc1ccc2ocnc2c1"
90 to 93 °C

Could you share which melting point value was measured for O=C(CBr)NC1(F)C=CC=CC1C(=O)c1ccccc1 (configuration not stated) ?
120 to 121 °C

Any idea what melting point was measured for "CC(=O)CC(=O)Nc1ccc(N)c([N+](=O)[O-])c1" ?
146 to 147 °C

GET /values?readout=melting point&item= CCN1C[C@@H](O)[C@H](N(CCc2ccccc2)C(=O)c2ccccc2)C1 (relative stereo)
71 to 75 °C

// returns reported melting point for input "CN1CCC(c2c[nH]c3ccc(OS(=O)(=O)c4ccc(Cl)cc4)cc23)CC1"
182 to 184 °C

Data request, read-out melting point, for "CCS(=O)(=O)N1CCN(c2ccc(NC(=O)c3cc(=O)c4cc(F)cc(N5CCN(C)CC5)c4o3)cc2)CC1"
233 to 234 °C

Tell me the measured melting point of "Cc1[nH]c2ccccc2c1C(=O)NC1CCN(Cc2ccccc2)CC1" , please.
150 to 153 °C

Requested field: melting point. Item: CC(Oc1ccc2c(c1)C(O)C(Oc1cccnc1)CO2)c1ccc2ccccc2n1 (configuration not stated)
75 to 83 °C

Fill in the blank: the reported melting point of N#CC1C(=O)NC(=O)C(C#N)C12CCCCC2 (configuration not stated) is ____.
202 to 210 °C

# get_value(readout='melting point', item= "Cn1c(C(F)(F)F)ccc(-c2cc(N)c(Cl)cc2F)c1=O" )
155 to 157 °C

Which melting point value is on record for COC(=O)C1=C(C)Nc2nccn2C1c1cccc(N)c1 (configuration not stated) ?
224 to 225 °C

Given the entry "O=C(Nc1ccc(O)cc1)c1ccc(O)cc1" , report its measured melting point.
180 to 185 °C

Endpoint output: melting point of "CC(C)NC(=O)c1cccc(I)c1C(=O)Nc1cc(C(F)(F)F)nn1-c1ccccc1Cl" . Value?
226 to 228 °C

What value of melting point has been reported for the following compound? O=C(O)CC1CCCCC1Oc1ccc(C(=O)c2ccc(Cl)cc2)cc1 (configuration not stated)
130 to 132 °C

Looking for the measured melting point of "c1ccc(-n2nnc3ccc(Cn4ccnc4)cc32)cc1" , can you help?
110 °C

So what's the measured melting point for this one? "COC(=O)c1ccc(CC#N)cc1S(=O)(=O)NC(=O)Nc1nc(OC)cc(OC)n1"
177 to 179 °C

Returns the measured melting point for the input compound. Input: "O=C(CBr)Nc1cc(F)ccc1C(=O)O"
166 to 168 °C

// returns reported melting point for input CC1OC(Cn2cncn2)(c2ccc(Cl)cc2Cl)OC1C (single isomer, unassigned; (-))
82.5 °C

melting point lookup needed for C=CC(=O)N1CC(c2ccccc2)c2ccccc21 (configuration not stated) , thanks.
77 to 78 °C

Could you share which melting point value was measured for "COc1cc2c(cc1O)CCN(C(=O)c1ccccc1OC)C2" ?
176 to 177 °C

For "COC(=O)CN1Cc2c([nH]c3ccccc23)C1=O" , what is its reported melting point?
215 to 217 °C

Can you share its melting point? I mean this compound: "COc1ccc(-c2nc(CNC(=O)NC(C)C)sc2-c2ccc(OC)cc2)cc1"
146 to 149 °C

Looking for the measured melting point of "COc1ccc(Cn2c(=O)ccc3cnc(N4CCC[C@H]4CO)nc32)cc1Cl" , can you help?
142 to 143 °C

Which melting point reading was recorded for the compound "O=[N+]([O-])CCN1CCC(n2ccc(-c3ccc(F)cc3)c2-c2ccncc2)CC1" ?
172 to 173 °C

Any idea what its melting point is? The compound is "CC(=O)Nc1nc(OCc2cccs2)ncc1F"
134 to 136 °C

Look up melting point for this compound: "Cc1cc(-c2ccc(Cl)cc2)cn2c(C(=O)O)cnc12"
228 °C

What measured melting point goes with "COc1ccc(S(=O)(=O)N=[N+]=[N-])cc1" ?
48 to 50 °C

May I ask what melting point has been recorded for "COc1ccc(Cc2ccc(CO)cc2)cc1" ?
68 to 72 °C

Query: melting point; subject: "N#Cc1ccc(C=O)cc1F"
83 °C

Look up melting point: "COc1ccc(NC(=O)c2ccc(F)c(F)c2)cc1NS(=O)(=O)CCl"
191 to 193 °C

What does the data say about its melting point? Entry: "CCc1nn(-c2ccccn2)c2nc3cc(F)c(F)cc3c(Cl)c12"
160 to 161 °C

What melting point value was documented for this compound, "COC(=O)c1cc2c3cc(Br)ccc3n(Cc3ccccc3)c2s1" ?
134 to 135 °C

Give its melting point value. Item: "O=C(O)C=Cc1ccc(Oc2nsnc(Cl)c2=O)cc1"
> 280 °C

Quick check: melting point of NC1=NC(c2ccc(OC(F)(F)F)cc2)(c2cccc(-c3cccnc3F)c2)C2=NCCCCN12 (configuration not stated) ?
88 to 97 °C

Look at this compound and give its reported melting point. "COc1cccc(C2=Nc3ccc(N4CCOCC4)cc3C(=O)C2)c1OC"
235 to 236 °C

Please report the recorded melting point for "CCOC(=O)/C=C/C=C/c1cccc(-c2c(CC(=O)Nc3ccc(F)cc3C(F)(F)F)c(=O)oc3cc(Cl)c(C)cc23)c1" .
216 to 218 °C

// returns reported melting point for input O=S1C(c2ccccc2)CC2(CC1c1ccccc1)OCCO2 (configuration not stated)
230 to 232 °C

Request the reported melting point associated with "CSC(=Nc1ccccc1)N(c1ccccc1)c1nc(C)cc(C)n1"
101 to 103 °C

Quick one: melting point of "CN(CCc1c[nH]c2ccc(NC(N)=O)cc12)C(=O)C(F)(F)F" ?
193 to 194 °C
